# System: HCC 2998
# experimental_details: NCI tumour cell line growth inhibition, 48 h
Activity calls are given as the source filed them. Rule as the data show it: active = GI50 up to about 1.1 µM and inactive = higher.
Possible outcomes: yes (1) = active, no (0) = inactive

{"compound": "C/C(=N\\Nc1nc2ccccc2o1)c1ncccn1", "study_target": "HCC 2998", "class_label": "yes (1)"}
{"compound": "CC(C)(C)C1CCC(=O)/C(=C/CC2CC(=O)N(c3ccccc3)C(=O)C2)C1 (stereo unspecified)", "study_target": "HCC 2998", "class_label": "no (0)"}
{"compound": "C[B@@-]1(c2ccc(C(F)(F)F)cc2)N[C@@H](Cc2ccccc2)C(=O)O1", "study_target": "HCC 2998", "class_label": "no (0)"}
{"compound": "C/C(CCN(C)C)=N\\OC(=O)c1ccccc1", "study_target": "HCC 2998", "class_label": "no (0)"}
{"compound": "COC(=O)c1c(C(=O)OC)c2ccc(-c3ccc(Cl)cc3)nn2c1C(=O)c1ccc([N+](=O)[O-])cc1", "study_target": "HCC 2998", "class_label": "no (0)"}
{"compound": "C#CCOCn1cnc2c(N)ncnc21", "study_target": "HCC 2998", "class_label": "no (0)"}
{"compound": "C[Si](C)(C)C#CCOC=C1CC1", "study_target": "HCC 2998", "class_label": "no (0)"}
{"compound": "O=C(/C=C1\\N=C(c2ccccc2)N(c2nc3c(Cl)cc(Cl)cc3s2)C1=O)/C=C/c1ccccc1", "study_target": "HCC 2998", "class_label": "no (0)"}
{"compound": "CC(C)NCC(O)c1cc(OCc2ccccc2)c(OCc2ccccc2)cc1NC(=O)CCC(=O)O (stereo unspecified)", "study_target": "HCC 2998", "class_label": "no (0)"}
{"compound": "Cc1nc(Cl)c(Cl)c(Cl)n1", "study_target": "HCC 2998", "class_label": "no (0)"}
{"compound": "O=C1/C(=C/c2ccc(Cl)cc2)CCC/C1=C\\c1ccc(O)c(CN2CCCCC2)c1", "study_target": "HCC 2998", "class_label": "no (0)"}

Every entry's value here was drawn from ChEMBL document CHEMBL1201862.
